assay: yeast AGP1-GFP level changes, GLN3 branch – cell-based, multiplex flow cytometry, S. cerevisiae, primary screen (AID 1887); details: 3 h, at 10 µM, hits give high values;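 also: AGP1-GFP fusion strain of S. cerevisiae within a five-strain barcoded multiplex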
Results filed as inconclusive are left out.
test readout: GFP response, % of DMSO (%)

• CC(=O)[C@H]1CC[C@H]2[C@@H]3CCC4=CC(=O)CC[C@]4(C)[C@H]3[C@H](O)C[C@]12C = 93.3
• CCN(CC)C(=O)N1CCN(C)CC1 = 108
• C#C[C@]1(O)CC[C@H]2[C@@H]3CCc4cc(O)ccc4[C@H]3CC[C@@]21C = 100
• COc1ccc(-c2noc(-c3ccccc3-c3ccccc3)n2)cc1 = 86.3
• Cc1ccc(SCC(=O)Nc2nccs2)cc1 = 99.7
• O=C(/C=C/c1ccccc1)c1ccccc1 = 87.5

###

tested on: anti-desmoglein-3 scFv antibody binding to human DSG3; test: blockers of pathogenic pemphigus antibody–desmoglein-3 binding – biochemical, validation compound set, bead-based, flow cytometry, pilot screen (AID 588368); conditions: Protein G beads, DSG3-Fc, scFv-GFP binding, at 10 µM, hits give low values;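 also: signal is the median channel fluorescence of bead-bound GFP antibody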
Activity calls are given as the source filed them.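 The calls were made as follows: active = binding below the plate cutoff, the plate median minus 3 SD, with a reading above zero; inconclusive = below the plate cutoff but reading exactly zero; inactive = the rest.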
The entries below come with measured binding (% of control) values attached.
test readout: binding (% of control)

• COc1ccc(C2C(C(=O)c3ccco3)=C(O)C(=O)N2CC2CCCO2)cc1 (configuration not stated) = 98.9% (inactive)
• CCN(CCCc1ccccc1)CCCc1ccccc1 = 103% (inactive)
• CC1(C)c2ccccc2N2CC(=O)NC21/C=C/c1ccco1 (configuration not stated) = 107% (inactive)
• Cc1cc(=O)[nH]c(=S)[nH]1 = 104% (inactive)
• CC1(C)C(=O)OC(C(=O)c2ccc(Cl)cc2)C(C)(C)C1=O (configuration not stated) = 99.3% (inactive)
• Cc1ccc(/C=N/NC(=O)C2(C)CC2(Br)Br)cc1 (configuration not stated) = 104% (inactive)
• COC(=O)c1ccc(NC(=O)C23CCC(C)(C(=O)O2)C3(C)C)cc1 (configuration not stated) = 110% (inactive)
• CC(C)CN1CCN(Cc2cccn2-c2ccccn2)CC1CCO (configuration not stated) = 102% (inactive)
• N#Cc1cc2c([nH]c1=O)CCCC2 = 97.7% (inactive)
• CC[N+](C)(C)c1cccc(O)c1 = 103% (inactive)
• CC(=O)N/C(=C/c1ccc2c(c1)OCO2)C(=O)NCCO = 97.4% (inactive)
• COc1cccc(C2CC(=O)C3=C(C2)Nc2ccccc2N(C(=O)CCC(=O)O)C3c2ccc(F)cc2)c1 (configuration not stated) = 102% (inactive)
• COc1ccc(-c2cc(C(=O)N3CCOCC3)c3cc(C)ccc3n2)cc1 = 104% (inactive)
• COc1ccc(Br)cc1C(=O)Nc1ccc(C(=O)O)cc1 = 96.3% (inactive)
• CCc1cc(C(N)=S)ccn1 = 101% (inactive)
• CC1CC(OC(=O)C(O)c2ccccc2)CC(C)(C)N1C (configuration not stated) = 103% (inactive)
• CC(C)COCC(CN(Cc1ccccc1)c1ccccc1)N1CCCC1 (configuration not stated) = 113% (inactive)
• CN=C(NC#N)NCCSCc1nc[nH]c1C = 103% (inactive)
• CC12CCC(C(=O)NCc3ccc4c(c3)OCO4)(CC1=O)C2(C)C (configuration not stated) = 105% (inactive)
• CC(C)(C)NCC(O)COc1cccc2c1C[C@H](O)[C@H](O)C2 (some centres not stated) = 99.2% (inactive)
• CCOc1ccc2nc(N/C(N)=N/S(C)(=O)=O)nc(C)c2c1 = 95% (inactive)
• CCC(C(=O)Nc1ccc2c(c1)OCCO2)c1ccccc1 (configuration not stated) = 101% (inactive)
• NC(=O)[C@@H]1[C@@H]2C(=O)N(c3ccc(F)cc3)C(=O)[C@@H]2[C@H]2C=Cc3ccccc3N21 = 104% (inactive)
• CC(C)CCNC(=O)[C@H](CC(C)C)NC(=O)[C@H]1O[C@@H]1C(=O)O = 98.4% (inactive)
• COc1ccc(CNC(=O)N[C@H](C(=O)O)C(C)C)cc1OC = 98.1% (inactive)
• CCc1cc2c(C)cc(=O)oc2cc1OC(=O)C1CCCN1C(=O)OC(C)(C)C (configuration not stated) = 103% (inactive)
• c1cnc(N2CCN(Cc3ccc4c(c3)OCO4)CC2)nc1 = 105% (inactive)
• CN(C)CCOCCOc1ccc(Cl)cc1Br = 105% (inactive)
• Cc1ccc2[nH]c3c(c2c1)CCNC3=O = 100% (inactive)
• CCOC(=O)C1NN=C(C(=O)c2ccccc2)C1c1ccc(Cl)cc1 (configuration not stated) = 99% (inactive)
• O=C(COc1ccc2c(-c3ccccc3)cc(=O)oc2c1)NCc1cccs1 = 102% (inactive)
• CCOc1ccc(C(=O)NC(C)C2COc3ccccc3O2)cc1 (configuration not stated) = 106% (inactive)
• CCc1cc2c(=O)c(-c3nc(C)cs3)c(CCCC(=O)O)oc2cc1O = 114% (inactive)
• Cc1ccc2[nH]c3c(=O)n(CCc4cnc[nH]4)cnc3c2c1 = 103% (inactive)
• Cc1ncc(CN2CCC(CO)(CCc3ccccc3)CC2)s1 = 107% (inactive)
• CCOC(=O)C(Cc1cc(C(C)=O)ccc1OC(C)C)C(=O)OCC = 99.8% (inactive)
• C#C[C@]1(O)CC[C@H]2[C@@H]3CCC4=CC(=O)CC[C@@H]4[C@H]3CC[C@@]21CC = 98% (inactive)
• Cc1nc2cc3ccccc3cc2c(=O)[nH]1 = 98% (inactive)
• O=C1c2cccc3cccc(c23)C(=O)N1c1ccccn1 = 95.3% (inactive)
• CC1(C)Cc2ccccc2-c2n[nH]c(=S)n21 = 97.2% (inactive)
• CSCC[C@H](NC(=O)OC(C)(C)C)C(=O)N1CCC(C(=O)N[C@@H](C)C(=O)O)CC1 = 103% (inactive)
• CCC(C(=O)OCCN(CC)CC)c1ccccc1 (configuration not stated) = 98.8% (inactive)
• Nc1cnn(C2OC(CO)C(O)C2O)c(=O)n1 (configuration not stated) = 97.7% (inactive)
• CC/C(=C(\c1ccc(O)cc1)c1ccc(OCCN(C)C)cc1)c1ccccc1 = 112% (inactive)
• Cc1coc2c1c(C)cc1oc(=O)c(Cc3ccccc3)c(C)c12 = 97.9% (inactive)
• CC(=O)N1CCN(c2ccc(NC(=O)/C=C/c3ccccc3)cc2)CC1 = 107% (inactive)
• Cc1ccc2occ(C(=O)c3ccco3)c(=O)c2c1 = 99.7% (inactive)

###

assay: TOR pathway GLN3 branch reporter MEP2-GFP changes – S. cerevisiae, multiplex flow cytometry, primary screen (AID 1867);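 also: median GFP channel fluorescence of barcode-gated MEP2-GFP cells measured by flow cytometry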; details: S. cerevisiae MEP2-GFP strain, 3 h, at 10 µM, hits give high values, 100% means same as DMSO wells
Records with an inconclusive call do not appear.
Below, each entry is listed with its recorded GFP response vs DMSO.
test readout: GFP response vs DMSO (%)

• CC(CN1c2ccccc2Sc2ccccc21)N(C)C (stereo not given) = 117
• COc1cc(CC(=O)NCCc2ccc(S(N)(=O)=O)cc2)cc(OC)c1OC = 103
• CCCCOc1ccc(CC(=O)NO)cc1 = 113
• CCCN(CCC)C(=O)C(CCC(=O)O)NC(=O)c1ccccc1 (stereo not given) = 109
• COc1ccccc1C(=O)Nc1cc2cc(Br)ccc2oc1=O = 106
• O=C(/C=C/c1c[nH]c2ccccc12)c1cccc2ccccc12 = 103
• COc1cc2c(cc1OC)C(c1ccc(-c3cc(Cl)ccc3Cl)o1)=NCC2 = 109
• CCc1ccc2oc(=O)cc(CN3CCC(C)CC3)c2c1 = 104
• CCC1CCc2c(sc(NC(=O)c3cccnc3)c2C(N)=O)C1 (stereo not given) = 102
• CCCCNc1ccc(C(=O)OCCN(C)C)cc1 = 109
• CCCCOc1cc(C(=O)NCCN(CC)CC)c2ccccc2n1 = 128
• CCSC(=O)CCCCCCCCCCCO = 103
• CCSC(SCC)[C@H](O)[C@@H](O)[C@H](O)[C@H](O)CO = 113
• Clc1cc(-c2ccc(/C=N/n3cnnc3)o2)ccc1Br = 103
• COc1ccc2oc(C)c(C(N)=O)c2c1 = 109
• Cc1csc(N)n1 = 105
• CC(=O)NC(NC(=S)N1CCCCCC1)C(Cl)(Cl)Cl (stereo not given) = 104
• COc1ccc2c(c1)[N+](C)(C)C(C)(C)C=C2C = 96.2
• Cc1ccc(N2C(=O)c3ccccc3C2=O)cc1C = 104
• COC(=O)[C@@H](N)CS = 102
• CCCC(=O)O[C@]1(C(=O)CCl)[C@@H](C)C[C@H]2[C@@H]3CCC4=CC(=O)C=C[C@]4(C)[C@@]3(F)C(=O)C[C@@]21C = 134
• CN(C)CCCN1c2ccccc2CCc2ccccc21 = 103
• O=C(O)CCn1cnc2ccccc2c1=O = 113
• COc1ccc(-n2cc(CNCc3cccnc3)c(-c3cccc(F)c3)n2)cc1 = 97.2
• COc1ccc(CNCCC(c2ccc(F)cc2)c2ccc(OC(C)C)cc2)cc1OC (stereo not given) = 105
